// provenance: paper PMC12670405

Target: AURKA (Homo sapiens)
Sequence (O14965 whole entry): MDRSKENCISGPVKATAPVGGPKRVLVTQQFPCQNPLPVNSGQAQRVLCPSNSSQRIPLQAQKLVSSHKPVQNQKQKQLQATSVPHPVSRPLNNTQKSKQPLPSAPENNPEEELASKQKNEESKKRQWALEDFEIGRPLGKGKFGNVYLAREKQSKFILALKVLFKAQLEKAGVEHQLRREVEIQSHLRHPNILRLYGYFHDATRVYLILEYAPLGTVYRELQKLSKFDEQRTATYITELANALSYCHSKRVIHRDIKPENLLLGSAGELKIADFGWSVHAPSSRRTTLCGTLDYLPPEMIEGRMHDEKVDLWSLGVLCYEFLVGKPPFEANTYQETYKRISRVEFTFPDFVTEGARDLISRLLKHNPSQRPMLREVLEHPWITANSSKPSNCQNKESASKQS
Assay: AURKA degradation, Simple Western;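 for AURKA Degradation 24h @100nM: measured in NGP neuroblastoma cells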
Assay type: cell-based
Design: Representative Western blot showing levels of endogenous proteins MDR1, MYCN, AURKA, and CRBN in untreated cell lines; endogenous in cells; host or cells: NGP, IMR-32, SJNB-8, SK-N-BE(2)-C, SK-N-SH, SK-N-AS, SJNB-1, RPE, HEK293T
Details: 24h, 100nM
Decide using AURKA Degradation 24h @100nM alone. Strictly below 80: MET. Equal to or above 80: NOT MET.

Cc1cc(Nc2ccc(F)c(CC3(C(=O)N4CCC(F)(CN5CCC(c6ccc(N7CCC(=O)NC7=O)cn6)CC5)CC4)CCN(Cc4cccc(Cl)c4F)CC3)n2)n[nH]1 | NOT MET
Cc1cc(Nc2ccc(F)c(CC3(C(=O)N4CCC(CN5CCC(c6ccc(CN7CCC(=O)NC7=O)cn6)CC5)CC4)CCN(Cc4cccc(Cl)c4F)CC3)n2)n[nH]1 | MET

*Q* Regarding O=C1CCC(Nc2ccc(N3CCN(CCNC(=O)[C@]4(Cc5cccc(Nc6nccs6)n5)CC[C@@H](Oc5cccc(Cl)c5F)CC4)CC3)cc2)C(=O)N1 (some centres unmarked) , kindly confirm whether its AURKA Degradation 24h @100nM is beneath 80.
*A* MET

*Q* # repeat for O=C1CCC(N2C(=O)c3cccc(OCCOCCOCCOCCNC(=O)[C@]4(Cc5cccc(Nc6nccs6)n5)CC[C@@H](Oc5cccc(Cl)c5F)CC4)c3C2=O)C(=O)N1 (some centres unmarked) [SK2188, reference compound]
*A* NOT MET

* * *

Below is a list of entries, each paired with its recorded GI50 value.
Test system: SK-N-AS
Assay: IncuCyte live-cell imaging, antiproliferative effect
Format: cell-based
Settings: Homo sapiens, 72 h, read-out: Cell GI50 72h
Number only, in nM; omit the unit.

The cases that follow already have their GI50 on record.
Cc1cc(Nc2ccc(F)c(CC3(C(=O)N4CCC(F)(CN5CCN(c6ccc(N7CCC(=O)NC7=O)cn6)CC5)CC4)CCN(Cc4cccc(Cl)c4F)CC3)n2)n[nH]1 | 654
Cc1cc(Nc2nc(CC3(C(=O)O)CCN(C(=O)c4cccc(Cl)c4Cl)CC3)ccc2F)n[nH]1 [TAS-119, reference compound] | 134
O=C(O)[C@]1(Cc2cccc(Nc3nccs3)n2)CC[C@@H](Oc2cccc(Cl)c2F)CC1 [MK-5108, reference compound] | 911
O=C1CCC(N2C(=O)c3cccc(OCCOCCOCCOCCNC(=O)[C@]4(Cc5cccc(Nc6nccs6)n5)CC[C@@H](Oc5cccc(Cl)c5F)CC4)c3C2=O)C(=O)N1 (some centres unmarked) [SK2188, reference compound] | 3180

// next item, GI50 requested
*Q* Please look up its GI50: `Cc1cc(Nc2ccc(F)c(CC3(C(=O)N4CCC(CN5CCN(c6ccc(N7CCC(=O)NC7=O)cn6)CC5)CC4)CCN(Cc4cccc(Cl)c4F)CC3)n2)n[nH]1`
*A* 994

* * *

Molecular target: AURKA (Homo sapiens)
Assay: AURKA degradation, Simple Western
Type: cell-based
Set-up: Representative Western blot showing levels of endogenous proteins MDR1, MYCN, AURKA, and CRBN in untreated cell lines; endogenous in cells; host or cells: NGP, IMR-32, SJNB-8, SK-N-BE(2)-C, SK-N-SH, SK-N-AS, SJNB-1, RPE, HEK293T
Conditions: AURKA degradation
Below is a list of entries, each paired with its recorded pDC50 value.

*Q* Please look up its pDC50: `O=C1CCN(c2ccc(N3CCN(CC4CN(C(=O)[C@]5(Cc6cccc(Nc7nccs7)n6)CC[C@@H](Oc6cccc(Cl)c6F)CC5)C4)CC3)nc2)C(=O)N1`
*A* 8,4

*Q* # repeat for O=C1CCN(c2ccc(N3CCN(C4CCN(C(=O)[C@]5(Cc6cccc(Nc7nccs7)n6)CC[C@@H](Oc6cccc(Cl)c6F)CC5)C4)CC3)nc2)C(=O)N1 (some centres unmarked)
*A* 8,3

*Q* # repeat for O=C1CCC(N2C(=O)c3ccc(OCCOCCNC(=O)[C@]4(Cc5cccc(Nc6nccs6)n5)CC[C@@H](Oc5cccc(Cl)c5F)CC4)cc3C2=O)C(=O)N1 (some centres unmarked) [SK3277, reference compound]
*A* 8,15

*Q* # repeat for O=C1CCC(Nc2ccc(N3CCN(CC4CN(C(=O)[C@]5(Cc6cccc(Nc7nccs7)n6)CC[C@@H](Oc6cccc(Cl)c6F)CC5)C4)CC3)cc2)C(=O)N1 (some centres unmarked)
*A* 7,29

*Q* # repeat for O=C1CCC(Nc2ccc(N3CCN(C4CN(C(=O)[C@]5(Cc6cccc(Nc7nccs7)n6)CC[C@@H](Oc6cccc(Cl)c6F)CC5)C4)CC3)nc2)C(=O)N1 (some centres unmarked)
*A* 8,76
